As a worked illustration, we turn to Ki data collected for human CA IV (Homo sapiens, UniProt P22748).
Numbers only, in nM.

Solved entries (count: 5):
INSERT INTO assay_data (samplesmiles, targetorsystem, assayvalue) VALUES
  ('Cc1cc(=O)oc2cc(OCCCCCCNc3nc4ccccc4o3)ccc12', 'human CA IV (Homo sapiens, UniProt P22748)', 984),
  ('Cc1cc(=O)oc2cc(OCCCCCNc3nc4cc(Br)ccc4o3)ccc12', 'human CA IV (Homo sapiens, UniProt P22748)', 792),
  ('Cc1cc(=O)oc2cc(OCCCNc3nc4ccccc4o3)ccc12', 'human CA IV (Homo sapiens, UniProt P22748)', 839),
  ('Cc1cc(=O)oc2cc(OCCCCCNc3nc4cc(-c5ccccc5)ccc4o3)ccc12', 'human CA IV (Homo sapiens, UniProt P22748)', 6270),
  ('O=c1cc(-c2ccccc2)c2ccc(OCCCCCCNc3nc4ccccc4o3)cc2o1', 'human CA IV (Homo sapiens, UniProt P22748)', 808);

Continue with the compound presented below.
Ki reported for this compound `Cc1ccc2oc(NCCCCCOc3ccc4c(C)cc(=O)oc4c3)nc2c1` : 762

----------
Record form. Attribute: GI50. Fill in for each entry.
- Test system: HeLa (cervix)
- protocolSummary: antiproliferative assay (NCI protocol), HeLa
- Format: cell-based, human
- assayContext: Homo sapiens, HeLa; antiproliferative activity
Numbers only, in µM.

Solved entries (count: 3):
INSERT INTO assay_data (samplesmiles, assayreadout, assayvalue) VALUES
  ('Cc1cc(=O)oc2cc(OCCCCCNc3nc4cc(-c5ccccc5)ccc4o3)ccc12', 'GI50', 28),
  ('Cc1c(Cl)c(=O)oc2cc(OCCCCCCNc3nc4ccccc4o3)ccc12', 'GI50', 3.9),
  ('Cc1cc(=O)oc2cc(OCCCCCNc3nc4cc(Br)ccc4o3)ccc12', 'GI50', 16);

Continue with the compound presented below.
GI50 reported for this compound `Cc1cc(=O)oc2cc(OCCCCCNc3nc4ccccc4o3)ccc12` : 39

----------
- targetOrSystem: human CA XII (Homo sapiens, UniProt O43570)
- Sequence (O43570 25-354): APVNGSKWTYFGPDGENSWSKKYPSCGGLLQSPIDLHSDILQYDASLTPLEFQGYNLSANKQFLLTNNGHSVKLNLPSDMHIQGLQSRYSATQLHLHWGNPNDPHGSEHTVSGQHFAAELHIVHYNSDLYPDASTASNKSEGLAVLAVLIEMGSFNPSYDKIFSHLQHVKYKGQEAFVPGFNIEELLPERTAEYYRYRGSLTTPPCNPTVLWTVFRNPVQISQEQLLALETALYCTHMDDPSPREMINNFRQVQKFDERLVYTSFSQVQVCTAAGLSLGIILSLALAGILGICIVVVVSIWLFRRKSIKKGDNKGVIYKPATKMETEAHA
- protocolSummary: stopped-flow CO2 hydrase assay, CA XII
- assayContext: ratio of Ki CA II / CA XII
assayReadout: Selectivity ratio II/XII

INSERT INTO measurements (samplesmiles, targetorsystem, assayvalue) VALUES
  ('Cc1c(C)c2ccc(OCCCCCCNc3nc4ccccc4o3)cc2oc1=O', 'human CA XII (Homo sapiens, UniProt O43570)', '>143.3'),
  ('Cc1cc(=O)oc2cc(OCCCCCNc3nc4cc(-c5ccccc5)ccc4o3)ccc12', 'human CA XII (Homo sapiens, UniProt O43570)', '>175.1'),
  ('Cc1cc(=O)oc2cc(OCCCCCNc3nc4cc(Br)ccc4o3)ccc12', 'human CA XII (Homo sapiens, UniProt O43570)', '>123.9');

Items follow; give Selectivity ratio II/XII for each.
1. Cc1cc(=O)oc2cc(OCCCNc3nc4ccccc4o3)ccc12
2. Cc1cc(=O)oc2cc(OCCCCCNc3nc4cc(S(N)(=O)=O)ccc4o3)ccc12

result:
1: >118.5; 2: 10.2

----------
- Tested on: A549 (non-small cell lung)
- protocolSummary: antiproliferative assay (NCI protocol), A549
- Assay type: cell-based, human
- assayContext: Homo sapiens, A549; antiproliferative activity
assayReadout: GI50 (µM)
Answers are plain numbers, in µM.

Solved entries (count: 2):
INSERT INTO measurements (compound, targetorsystem, assayreadout, unitsymbol, assayvalue) VALUES
  ('Cc1cc(=O)oc2cc(OCCCCCNc3nc4ccccc4o3)ccc12 [Compound 8b]', 'A549 (non-small cell lung)', 'GI50', 'µM', 15),
  ('Cc1c(Cl)c(=O)oc2cc(OCCCCCCNc3nc4ccccc4o3)ccc12 [Compound 8e]', 'A549 (non-small cell lung)', 'GI50', 'µM', 2.6);

Items follow; give GI50 for each.
1. O=c1[nH]cc(F)c(=O)[nH]1 [5-Fluorouracil, reference compound]
2. Cc1cc(=O)oc2cc(OCCCCCNc3nc4cc(S(N)(=O)=O)ccc4o3)ccc12 [Compound 8j]

result:
[2.2, 13]

Items follow; give GI50 for each.
1. Cc1cc(=O)oc2cc(OCCCCCNc3nc4cc(-c5ccccc5)ccc4o3)ccc12 [Compound 8i]
2. Cc1cc(=O)oc2cc(OCCCCCNc3nc4cc(Br)ccc4o3)ccc12 [Compound 8h]
3. Cc1c(C)c2ccc(OCCCCCCNc3nc4ccccc4o3)cc2oc1=O [Compound 8d]
4. Cc1cc(=O)oc2cc(OCCCNc3nc4ccccc4o3)ccc12 [Compound 8a]
5. Cc1cc(=O)oc2cc(OCCCCCCNc3nc4ccccc4o3)ccc12 [Compound 8c]

result:
1: 41; 2: 6.5; 3: 15; 4: 32; 5: 8.3

----------
pKi: −log10 of the molar value.
As a worked illustration, we turn to pKi data collected for human CA VII (Homo sapiens, UniProt P43166).

Solved entries (count: 5):
INSERT INTO results (compound, assayreadout, assayvalue) VALUES
  ('Cc1cc(=O)oc2cc(OCCCCCNc3nc4cc(S(N)(=O)=O)ccc4o3)ccc12 [Compound 8j]', 'pKi', 6.42),
  ('Cc1ccc2oc(NCCCCCOc3ccc4c(C)cc(=O)oc4c3)nc2c1 [Compound 8g]', 'pKi', '< 5.00'),
  ('Cc1cc(=O)oc2cc(OCCCCCNc3nc4cc(Br)ccc4o3)ccc12 [Compound 8h]', 'pKi', '< 5.00'),
  ('Cc1cc(=O)oc2cc(OCCCCCNc3nc4cc(-c5ccccc5)ccc4o3)ccc12 [Compound 8i]', 'pKi', '< 5.00'),
  ('Cc1cc(=O)oc2cc(OCCCNc3nc4ccccc4o3)ccc12 [Compound 8a]', 'pKi', '< 5.00');

Continue with the compound presented below.
Recorded pKi for Cc1cc(=O)oc2cc(OCCCCCCNc3nc4ccccc4o3)ccc12 [Compound 8c] on human CA VII (Homo sapiens, UniProt P43166) was < 5.00

----------
- Tested on: BJ-hTert, human fibroblasts
- protocolSummary: antiproliferative assay (NCI protocol), non-tumour BJ-hTert
- Format: cell-based
- assayContext: Fibroblast; non-tumour cell line, human fibroblasts
assayReadout: GI50

INSERT INTO measurements (compound, assayvalue) VALUES
  ('Cc1c(C)c2ccc(OCCCCCCNc3nc4ccccc4o3)cc2oc1=O', '> 50 µM'),
  ('Cc1ccc2oc(NCCCCCOc3ccc4c(C)cc(=O)oc4c3)nc2c1', '> 100 µM'),
  ('O=c1cc(-c2ccccc2)c2ccc(OCCCCCCNc3nc4ccccc4o3)cc2o1', '> 100 µM');

Items follow; give GI50 for each.
1. Cc1cc(=O)oc2cc(OCCCNc3nc4ccccc4o3)ccc12
2. Cc1cc(=O)oc2cc(OCCCCCNc3nc4cc(Br)ccc4o3)ccc12
3. Cc1cc(=O)oc2cc(OCCCCCNc3nc4ccccc4o3)ccc12
4. O=c1[nH]cc(F)c(=O)[nH]1 [5-Fluorouracil, reference compound]
5. Cc1cc(=O)oc2cc(OCCCCCCNc3nc4ccccc4o3)ccc12

result:
["> 50 µM", "> 100 µM", "> 100 µM", "5.5 µM", "> 100 µM"]

Items follow; give GI50 for each.
1. Cc1cc(=O)oc2cc(OCCCCCNc3nc4cc(S(N)(=O)=O)ccc4o3)ccc12
2. Cc1c(Cl)c(=O)oc2cc(OCCCCCCNc3nc4ccccc4o3)ccc12
3. Cc1cc(=O)oc2cc(OCCCCCNc3nc4cc(-c5ccccc5)ccc4o3)ccc12

result:
1. > 100 µM
2. > 100 µM
3. 25 µM

----------
- targetOrSystem: human CA XII (Homo sapiens, UniProt O43570)
- protocolSummary: stopped-flow CO2 hydrase assay, CA XII
- assayContext: ratio of Ki CA I / CA XII
assayReadout: Selectivity ratio I/XII

INSERT INTO measurements (samplesmiles, assayreadout, assayvalue) VALUES
  ('Cc1c(Cl)c(=O)oc2cc(OCCCCCCNc3nc4ccccc4o3)ccc12', 'Selectivity ratio I/XII', '>132.1'),
  ('Cc1cc(=O)oc2cc(OCCCCCNc3nc4cc(Br)ccc4o3)ccc12', 'Selectivity ratio I/XII', '>123.9'),
  ('Cc1c(C)c2ccc(OCCCCCCNc3nc4ccccc4o3)cc2oc1=O', 'Selectivity ratio I/XII', '>143.3'),
  ('Cc1cc(=O)oc2cc(OCCCNc3nc4ccccc4o3)ccc12', 'Selectivity ratio I/XII', '>118.5'),
  ('O=c1cc(-c2ccccc2)c2ccc(OCCCCCCNc3nc4ccccc4o3)cc2o1', 'Selectivity ratio I/XII', '>31.6'),
  ('Cc1cc(=O)oc2cc(OCCCCCNc3nc4cc(S(N)(=O)=O)ccc4o3)ccc12', 'Selectivity ratio I/XII', 15.9),
  ('Cc1ccc2oc(NCCCCCOc3ccc4c(C)cc(=O)oc4c3)nc2c1', 'Selectivity ratio I/XII', '>148.6'),
  ('Cc1cc(=O)oc2cc(OCCCCCCNc3nc4ccccc4o3)ccc12', 'Selectivity ratio I/XII', '>153.6'),
  ('Cc1cc(=O)oc2cc(OCCCCCNc3nc4ccccc4o3)ccc12', 'Selectivity ratio I/XII', '>118.3');

Continue with the molecule presented below.
Selectivity ratio I/XII reported for this molecule `Cc1cc(=O)oc2cc(OCCCCCNc3nc4cc(-c5ccccc5)ccc4o3)ccc12` : >175.1
